Where do the numbers come from? From ChEMBL document CHEMBL1153264.

Molecular target: Vascular endothelial growth factor receptor 2 (Homo sapiens, UniProt P35968)
Sequence (P35968 whole entry): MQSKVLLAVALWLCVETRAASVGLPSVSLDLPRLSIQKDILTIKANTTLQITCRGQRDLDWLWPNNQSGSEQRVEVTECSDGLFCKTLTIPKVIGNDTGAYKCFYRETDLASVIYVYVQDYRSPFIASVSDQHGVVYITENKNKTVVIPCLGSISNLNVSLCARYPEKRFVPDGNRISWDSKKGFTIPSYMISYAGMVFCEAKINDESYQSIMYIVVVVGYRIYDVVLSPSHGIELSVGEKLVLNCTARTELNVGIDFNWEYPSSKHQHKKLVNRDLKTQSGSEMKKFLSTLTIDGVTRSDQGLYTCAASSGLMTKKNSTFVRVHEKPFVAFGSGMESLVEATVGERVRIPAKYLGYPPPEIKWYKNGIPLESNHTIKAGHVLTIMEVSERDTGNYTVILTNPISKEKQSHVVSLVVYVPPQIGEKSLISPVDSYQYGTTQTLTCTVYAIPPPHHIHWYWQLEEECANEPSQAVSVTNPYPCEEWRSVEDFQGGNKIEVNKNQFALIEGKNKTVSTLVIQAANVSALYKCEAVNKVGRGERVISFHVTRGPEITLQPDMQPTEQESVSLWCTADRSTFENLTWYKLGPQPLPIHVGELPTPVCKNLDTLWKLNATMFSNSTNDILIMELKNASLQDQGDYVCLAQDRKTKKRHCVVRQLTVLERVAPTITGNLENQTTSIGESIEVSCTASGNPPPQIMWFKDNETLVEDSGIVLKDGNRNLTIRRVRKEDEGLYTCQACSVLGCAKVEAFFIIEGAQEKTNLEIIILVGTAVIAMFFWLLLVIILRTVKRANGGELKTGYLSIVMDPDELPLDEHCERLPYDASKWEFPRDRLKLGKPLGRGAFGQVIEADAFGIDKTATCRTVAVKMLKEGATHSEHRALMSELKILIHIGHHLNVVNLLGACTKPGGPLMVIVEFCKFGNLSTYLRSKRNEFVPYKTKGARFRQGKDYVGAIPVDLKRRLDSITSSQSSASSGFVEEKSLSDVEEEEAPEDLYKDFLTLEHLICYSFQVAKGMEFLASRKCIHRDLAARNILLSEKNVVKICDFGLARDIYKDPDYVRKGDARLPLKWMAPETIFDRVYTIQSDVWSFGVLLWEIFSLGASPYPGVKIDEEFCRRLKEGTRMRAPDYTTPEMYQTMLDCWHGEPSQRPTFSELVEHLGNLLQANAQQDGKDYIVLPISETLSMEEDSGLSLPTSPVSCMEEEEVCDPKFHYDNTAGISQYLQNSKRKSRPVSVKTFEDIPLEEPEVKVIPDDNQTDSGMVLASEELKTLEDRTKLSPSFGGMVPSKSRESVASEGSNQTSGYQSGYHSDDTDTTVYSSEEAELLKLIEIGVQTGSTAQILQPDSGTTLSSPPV
Assay: Inhibition of VEGF-induced phosphorylation of VEGFR2 by cell-based ELISA
pIC50: −log10 of the molar value.
QUANTITY: pIC50

INSERT INTO results (sample_smiles, tested_system, inequality_sign, observed_result) VALUES
  ('Clc1cccc(-n2cc(-c3ccccc3NCc3ccc4c(c3)OCO4)nn2)c1', 'Vascular endothelial growth factor receptor 2 (Homo sapiens, UniProt P35968)', '<', 5.00),
  ('FC(F)(F)Oc1cccc(-n2cc(-c3ccccc3NCc3ccncc3)nn2)c1', 'Vascular endothelial growth factor receptor 2 (Homo sapiens, UniProt P35968)', '=', 7.07),
  ('FC(F)(F)c1cccc(-n2cc(-c3ccccc3NCc3ccc4c(c3)OCO4)nn2)c1', 'Vascular endothelial growth factor receptor 2 (Homo sapiens, UniProt P35968)', '<', 5.00),
  ('Clc1ccc(-n2cc(-c3ccccc3NCc3ccncc3)nn2)cc1', 'Vascular endothelial growth factor receptor 2 (Homo sapiens, UniProt P35968)', '=', 6.57),
  ('Clc1cccc(-n2cc(-c3ccccc3NCc3ccnc4ccccc34)nn2)c1', 'Vascular endothelial growth factor receptor 2 (Homo sapiens, UniProt P35968)', '=', 6.57),
  ('Clc1ccc(-n2cc(-c3ccccc3NCc3ccncc3)nn2)cc1Cl', 'Vascular endothelial growth factor receptor 2 (Homo sapiens, UniProt P35968)', '=', 5.83),
  ('FC(F)(F)c1cccc(-n2cc(-c3ccccc3NCc3ccnc4ccccc34)nn2)c1', 'Vascular endothelial growth factor receptor 2 (Homo sapiens, UniProt P35968)', '=', 6.51),
  ('c1ccc(-c2cn(-c3ccc4ccccc4n3)nn2)c(NCc2ccncc2)c1', 'Vascular endothelial growth factor receptor 2 (Homo sapiens, UniProt P35968)', '=', 5.92),
  ('Clc1cccc(-n2cc(-c3ccccc3NCc3ccccn3)nn2)c1', 'Vascular endothelial growth factor receptor 2 (Homo sapiens, UniProt P35968)', '<', 5.00),
  ('FC(F)(F)c1ccc(-n2cc(-c3ccccc3NCc3ccncc3)nn2)cc1Cl', 'Vascular endothelial growth factor receptor 2 (Homo sapiens, UniProt P35968)', '=', 5.53),
  ('FC(F)(F)c1cc(-n2cc(-c3ccccc3NCc3ccncc3)nn2)ccc1Cl', 'Vascular endothelial growth factor receptor 2 (Homo sapiens, UniProt P35968)', '=', 6.11),
  ('Clc1cccc(-n2cc(-c3ccccc3NCc3c[nH]cn3)nn2)c1', 'Vascular endothelial growth factor receptor 2 (Homo sapiens, UniProt P35968)', '<', 5.00),
  ('CC(C)(C)c1ccc(-n2cc(-c3ccccc3NCc3ccncc3)nn2)cc1', 'Vascular endothelial growth factor receptor 2 (Homo sapiens, UniProt P35968)', '=', 5.79),
  ('Clc1cccc(-n2cc(-c3ccccc3NCc3cccnc3)nn2)c1', 'Vascular endothelial growth factor receptor 2 (Homo sapiens, UniProt P35968)', '<', 5.00),
  ('FC(F)(F)c1cccc(-n2cc(-c3ccccc3NCc3ccccn3)nn2)c1', 'Vascular endothelial growth factor receptor 2 (Homo sapiens, UniProt P35968)', '<', 5.00),
  ('c1ccc(-c2cn(-c3ccc4[nH]ncc4c3)nn2)c(NCc2ccncc2)c1', 'Vascular endothelial growth factor receptor 2 (Homo sapiens, UniProt P35968)', '=', 5.63),
  ('Clc1cccc(-n2cc(-c3ccccc3NCc3ccncc3)nn2)c1', 'Vascular endothelial growth factor receptor 2 (Homo sapiens, UniProt P35968)', '=', 6.80),
  ('CC(C)c1cccc(-n2cc(-c3ccccc3NCc3ccncc3)nn2)c1', 'Vascular endothelial growth factor receptor 2 (Homo sapiens, UniProt P35968)', '=', 6.82),
  ('FC(F)(F)c1cccc(-n2cc(-c3ccccc3NCc3cccnc3)nn2)c1', 'Vascular endothelial growth factor receptor 2 (Homo sapiens, UniProt P35968)', '<', 5.00);
